- Target system: human GPR119 (hGPR119) (Homo sapiens, UniProt Q8TDV5)
- Construct: expressed in transfected cells
- Sequence (Q8TDV5 whole entry): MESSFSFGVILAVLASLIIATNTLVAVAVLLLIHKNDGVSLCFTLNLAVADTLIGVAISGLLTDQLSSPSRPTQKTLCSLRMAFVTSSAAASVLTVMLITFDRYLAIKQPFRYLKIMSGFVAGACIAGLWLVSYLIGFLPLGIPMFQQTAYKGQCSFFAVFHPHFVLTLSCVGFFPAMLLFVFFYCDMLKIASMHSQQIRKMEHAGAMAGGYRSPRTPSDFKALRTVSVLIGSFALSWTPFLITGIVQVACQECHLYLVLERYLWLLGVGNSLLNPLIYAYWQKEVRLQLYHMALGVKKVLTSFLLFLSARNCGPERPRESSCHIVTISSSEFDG
- Test name: cAMP accumulation assay (Cisbio cAMP Gs dynamic HTRF kit) in CHO-K1 cells stably expressing human GPR119
- Format: cell-based
- Measurement context: 60 minutes at 37° C., 4-parameter fit
pEC50: −log10 of the molar value.
# reported pEC50; entries follow

Worked examples follow.
O=C(Cc1ccc(OCCCC2CCN(c3ncc(Cl)cn3)CC2)cc1F)N1C[C@H]2CN(C[C@H](O)[C@@H](O)[C@H](O)[C@H](O)CO)[C@H]2C1	6.00 to 7.00
O=C(Cc1ccc(OCCCC2CCN(c3ncc(Cl)cn3)CC2)cc1F)N1CCN(C[C@H](O)[C@H](O)[C@H](O)CO)C2CC21 (stereo partly drawn)	≥ 7.00
O=C(Cc1ccc(OCCCC2CCN(c3ncc(Cl)cn3)CC2)cc1F)N1CC2(C1)N(C[C@H](O)[C@@H](O)[C@H](O)[C@H](O)CO)CC2(F)F	≥ 7.00
O=C(CCCCS(=O)(=O)O)N1CCCN(C(=O)Cc2ccc(OCCCC3CCN(c4ncc(Cl)cn4)CC3)cc2F)CC1	6.00 to 7.00

Provide measured pEC50 value, entry: O=C(Cc1ccc(OCCCC2CCN(c3ncc(Cl)cn3)CC2)cc1F)N1C[C@H]2CN(C[C@H](O)[C@H](O)[C@H](O)CO)C[C@H]2C1
≥ 7.00

Provide measured pEC50 value, entry: O=C(CCCCS(=O)(=O)O)N1CCN(C(=O)Cc2ccc(OCCCC3CCN(c4ncc(Cl)cn4)CC3)cc2F)C2CC21 (stereo not drawn)
6.00 to 7.00

Indicate the recorded pEC50 value for this compound: COCc1cnc(N2CCC(CCCOc3ccc(CC(=O)N4CCN(C[C@H](O)[C@@H](O)[C@H](O)[C@H](O)CO)CC4)c(F)c3)CC2)nc1
6.00 to 7.00

Determine from records and report pEC50 for O=C(Cc1ccc(OCCC2CC23CCN(c2ncc(Cl)cn2)CC3)cc1F)N1CCN(C[C@H](O)[C@@H](O)[C@H](O)[C@H](O)CO)CC1 (stereo partly drawn)
6.00 to 7.00

Quick one: give measured pEC50 for O=C(CCCCS(=O)(=O)O)N1CC2CC(C1)N2C(=O)Cc1ccc(OCCCC2CCN(c3ncc(Cl)cn3)CC2)cc1F
≥ 7.00

Indicate its recorded pEC50; the compound in question is O=C(Cc1ccc(OCCCC2CCN(c3ncc(Cl)cn3)CC2)cc1F)N1C[C@@H]2C[C@H]1CN2C[C@H](O)[C@H](O)[C@H](O)CO
≥ 7.00

Given CCCc1cnc(N2CCC(CCCOc3cc(F)c(CC(=O)N4CCN(C[C@H](O)[C@@H](O)[C@H](O)[C@H](O)CO)CC4)c(F)c3)CC2)nc1 , respond with its pEC50.
≥ 7.00

State, in one line, measured pEC50 of O=C(Cc1ccc(OCCCC2CCN(c3ncc(Cl)cn3)CC2)cc1F)N1CC2(CCC2NC[C@H](O)[C@H](O)[C@H](O)CO)C1 (stereo partly drawn)
≥ 7.00

Please list pEC50 recorded for the compound O=C(CCCCS(=O)(=O)O)N1CCC2(CCN(C(=O)Cc3ccc(OCCCC4CCN(c5ncc(Cl)cn5)CC4)cc3F)C2)C1 (stereo not drawn)
≥ 7.00
